Molecular target: KRAS G12D (Homo sapiens, UniProt P01116+P62937, G12D)
Sequence (P01116 1-169 isoform P01116-2 G12D limits assumed): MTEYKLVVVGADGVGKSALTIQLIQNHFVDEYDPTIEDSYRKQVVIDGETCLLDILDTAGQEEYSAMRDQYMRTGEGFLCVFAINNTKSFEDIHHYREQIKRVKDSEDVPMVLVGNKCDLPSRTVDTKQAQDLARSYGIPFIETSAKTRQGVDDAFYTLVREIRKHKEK
Sequence (P62937 whole entry): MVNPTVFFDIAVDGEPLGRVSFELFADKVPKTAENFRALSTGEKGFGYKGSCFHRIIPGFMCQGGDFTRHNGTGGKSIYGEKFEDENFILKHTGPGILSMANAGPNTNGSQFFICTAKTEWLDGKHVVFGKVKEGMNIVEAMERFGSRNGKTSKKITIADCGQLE
Assay: Ras-Raf disruption / FRET / MOA assay (BRAF RBD)
Format: biochemical
Conditions: Ras-Raf disruption, with Cyclophilin A; read-out: KRAS G12D FRET data IC50
endpoint.label: IC50

Answered examples (3):
molecule | IC50
CCn1c(-c2cccnc2[C@H](C)OC)c2c3cc(ccc31)-c1cc(O)cc(c1)C[C@H](NC(=O)[C@H](C1CCCC1)N1CC[C@]3(CCN(C(=O)[C@H]4CN4)C3)C1=O)C(=O)N1CCC[C@H](N1)C(=O)OCC(C)(C)C2 | 10 to 100 nM
CCn1c(-c2cccnc2[C@H](C)OC)c2c3cc(ccc31)-c1csc(n1)C[C@H](NC(=O)[C@H](C(C)C)N(C)C(=O)N(C)C1CN(C(=O)[C@H]3CN3)C1)C(=O)N1CCC[C@H](N1)C(=O)OCC(C)(C)C2 | 1000 to 10000 nM
CCn1c(-c2cnccc2COC)c2c3cc(ccc31)-c1cc(O)cc(c1)C[C@H](NC(=O)[C@H](C(C)C)N(C)C(=O)CN(C)C(=O)[C@H]1[C@@H](C(=O)OC)N1[S@+]([O-])C(C)(C)C)C(=O)N1CCC[C@H](N1)C(=O)OCC(C)(C)C2 (some centres unmarked) | 100 to 1000 nM

Input: Give reported IC50 value for "CCn1c(-c2cccnc2[C@H](C)OC)c2c3cc(ccc31)-c1cc(O)cc(c1)C[C@H](NC(=O)[C@H](C(C)C)N(C)C(=O)[C@H]1CCCN(C(=O)[C@@H]3CN3)C1)C(=O)N1CCC[C@H](N1)C(=O)OCC(C)(C)C2"
Output: 100 to 1000 nM

Input: Give reported IC50 value for "CCn1c(-c2cccnc2[C@H](C)OC)c2c3cc(ccc31)-c1cc(O)cc(c1)C[C@H](NC(=O)[C@H](C(C)C)N1CCC3(CN(C(=O)[C@@H]4CN4)C3)C1=O)C(=O)N1CCC[C@H](N1)C(=O)OCC(C)(C)C2"
Output: 1000 to 10000 nM

Input: Give reported IC50 value for "CCn1c(-c2cccnc2[C@H](C)OC)c2c3cc(ccc31)-c1cccc(c1)C[C@H](NC(=O)[C@H](C(C)C)N(C)C(=O)[C@H]1C[C@H](N=C=NCc3ccccc3OC)C1)C(=O)N1CCC[C@H](N1)C(=O)OCC(C)(C)C2"
Output: 1000 to 10000 nM

Input: Give reported IC50 value for "CCn1c(-c2cccnc2[C@H](C)OC)c2c3cc(ccc31)-c1cc(O)cc(c1)C[C@H](NC(=O)[C@H](C1CCCC1)N1CC[C@]3(CCN(C(=O)[C@@H]4N[C@@H]4C4CC4)C3)C1=O)C(=O)N1CCC[C@H](N1)C(=O)OCC(C)(C)C2"
Output: < 10 nM

Input: Give reported IC50 value for "CCn1c(-c2cccnc2[C@H](C)OC)c2c3cc(ccc31)-c1csc(n1)C[C@H](NC(=O)[C@H](C(C)C)N(C)C(=O)N1CCN(C(=O)[C@H]3CN3)CC1)C(=O)N1CCC[C@H](N1)C(=O)OCC(C)(C)C2"
Output: 100 to 1000 nM

Input: Give reported IC50 value for CCn1c(-c2cccnc2[C@H](C)OC)c2c3cc(ccc31)-c1cc(O)cc(c1)C[C@H](NC(=O)[C@H](C(C)C)N(C)C(=O)[C@H]1CCN(S(=O)(=O)[C@@H]3CN3C)C1)C(=O)N1CCC[C@H](N1)C(=O)OCC(C)(C)C2 (single isomer, unassigned)
Output: 100 to 1000 nM

Input: Give reported IC50 value for CCn1c(-c2cccnc2[C@H](C)OC)c2c3cc(ccc31)-c1cc(O)cc(c1)C[C@H](NC(=O)[C@H](C(C)C)N(C)C(=O)[C@H]1CCN(C(=O)C3CO3)C1)C(=O)N1CCC[C@H](N1)C(=O)OCC(C)(C)C2 (some centres unmarked)
Output: 10 to 100 nM

Input: Give reported IC50 value for "CCn1c(-c2cccnc2[C@H](C)OC)c2c3cc(ccc31)-c1cc(O)cc(c1)C[C@H](NC(=O)[C@H](C(C)C)N(C)C(=O)c1ncc(NC(=O)[C@H]3CN3)n1C)C(=O)N1CCC[C@H](N1)C(=O)OCC(C)(C)C2"
Output: 1000 to 10000 nM

====

Below is a list of entries, each paired with its recorded pIC50 value.
Target: KRAS G12S (Homo sapiens, UniProt P01116+P62937, G12S)
Sequence (P01116 1-169 isoform P01116-2 G12S limits assumed): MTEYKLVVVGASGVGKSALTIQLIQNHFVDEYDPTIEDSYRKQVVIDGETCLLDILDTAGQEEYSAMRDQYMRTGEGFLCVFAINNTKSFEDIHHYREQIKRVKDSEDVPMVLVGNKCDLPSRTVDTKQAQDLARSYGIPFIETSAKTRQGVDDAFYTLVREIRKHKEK
Sequence (P62937 whole entry): as the sequence (P62937 whole entry) above
Assay: Ras-Raf disruption / FRET / MOA assay (BRAF RBD)
Assay type: biochemical
Conditions: Ras-Raf disruption, with Cyclophilin A; read-out: KRAS G12S FRET data IC50
pIC50: −log10 of the molar value.

molecule | pIC50
CCn1c(-c2cccnc2[C@H](C)OC)c2c3cc(ccc31)-c1cc(O)cc(c1)C[C@H](NC(=O)[C@H](C(C)C)N1CCC3(CN(C(=O)[C@H]4CN4)C3)C1=O)C(=O)N1CCC[C@H](N1)C(=O)OCC(C)(C)C2 [Example 115] | 6.00 to 7.00
CCn1c(-c2cccnc2[C@H](C)OC)c2c3cc(ccc31)-c1cc(O)cc(c1)C[C@H](NC(=O)[C@H](C(C)C)N(C)C(=O)[C@H]1CN1)C(=O)N1CCC[C@H](N1)C(=O)OCC(C)(C)C2 [Example 112] | 6.00 to 7.00
CCn1c(-c2cccnc2[C@H](C)OC)c2c3cc(ccc31)-c1cc(O)cc(c1)C[C@H](NC(=O)[C@H](C(C)C)N(C)C(=O)[C@H]1CCN(C(=O)[C@H]3CN3)C1)C(=O)N1CCC[C@H](N1)C(=O)OCC(C)(C)C2 (single isomer, unassigned) [Example 43A] | 7.00 to 8.00
CCn1c(-c2cccnc2[C@H](C)OC)c2c3cc(ccc31)-c1cc(O)cc(c1)C[C@H](NC(=O)[C@H](C(C)C)N(C)C(=O)[C@@H]1CCCN(C(=O)[C@H]3CN3)C1)C(=O)N1CCC[C@H](N1)C(=O)OCC(C)(C)C2 (atropisomer, axis not shown) [Example 237] | 7.00 to 8.00
CCn1c(-c2cnccc2COC)c2c3cc(ccc31)-c1cccc(c1)C[C@H](NC(=O)[C@H](C(C)C)N(C)C(=O)CCN=C=NCCc1cccs1)C(=O)N1CCC[C@H](N1)C(=O)OCC(C)(C)C2 [68 A and B] | < 5.00
CCn1c(-c2cccnc2[C@H](C)OC)c2c3cc(ccc31)-c1cc(O)cc(c1)C[C@H](NC(=O)[C@H](C1CCCC1)N1CC[C@]3(CCN(C(=O)[C@@H]4N[C@@H]4C4CC4)C3)C1=O)C(=O)N1CCC[C@H](N1)C(=O)OCC(C)(C)C2 [Example 214] | 7.00 to 8.00

Input: Give reported pIC50 value for CCn1c(-c2cccnc2[C@H](C)OC)c2c3cc(ccc31)-c1csc(n1)C[C@H](NC(=O)[C@H](C(C)C)N(C)C(=O)N1CCC[C@H](N(C)C(=O)[C@@H]3CN3)C1)C(=O)N1CCC[C@H](N1)C(=O)OCC(C)(C)C2 (atropisomer, axis not shown) [Example 292]
Output: 6.00 to 7.00

Input: Give reported pIC50 value for CCn1c(-c2cccnc2[C@H](C)OC)c2c3cc(ccc31)-c1cc(O)cc(c1)C[C@H](NC(=O)[C@H](C(C)C)N(C)C(=O)N1CCN(C(=O)[C@@H]3CN3)C(=O)C1)C(=O)N1CCC[C@H](N1)C(=O)OCC(C)(C)C2 [Example 197]
Output: 7.00 to 8.00

Input: Give reported pIC50 value for CCn1c(-c2cccnc2[C@H](C)OC)c2c3cc(ccc31)-c1cc(O)cc(c1)C[C@H](NC(=O)[C@H](C(C)C)N(C)C(=O)[C@@H]1CCN(C(=O)[C@@H]3CN3)[C@@H]1C)C(=O)N1CCC[C@H](N1)C(=O)OCC(C)(C)C2 (atropisomer, axis not shown) [Example 208]
Output: 7.00 to 8.00

Input: Give reported pIC50 value for CCn1c(-c2cccnc2[C@H](C)OC)c2c3cc(ccc31)-c1cc(O)cc(c1)C[C@H](NC(=O)[C@H](C(C)C)N(C)C(=O)c1ncc(NC(=O)[C@@H]3CN3)n1C)C(=O)N1CCC[C@H](N1)C(=O)OCC(C)(C)C2 [Example 83]
Output: 7.00 to 8.00

====

Biological target: KRAS G12D (Homo sapiens, UniProt P01116+P62937, G12D)
Assay: Disruption of BRAF RBD interaction with Ras (FRET / MOA assay, with Cyclophilin A)
Assay type: biochemical
Conditions: read-out: KRAS G12D FRET data, IC50
endpoint.label: IC50

molecule | measurement
CCn1c(-c2cccnc2[C@H](C)OC)c2c3cc(ccc31)-c1cc(O)cc(c1)C[C@H](NC(=O)[C@H](C(C)C)N(C)C(=O)[C@@H]1OCC[C@@H]1c1cccnc1)C(=O)N1CCC[C@H](N1)C(=O)OCC(C)(C)C2 (atropisomer, axis not shown) | 10 to 100 nM
C=CC(=O)N1CC[C@@H](N(C)C(=O)N(C)[C@H](C(=O)N[C@H]2Cc3nc(cs3)-c3ccc4c(c3)c(c(-c3cccnc3[C@H](C)OC)n4CC)CC(C)(C)COC(=O)[C@@H]3CCCN(N3)C2=O)C(C)C)C1 | 100 to 1000 nM
C=CC(=O)N1C[C@@H](C(=O)N(C)[C@H](C(=O)N[C@H]2Cc3cccc(c3)-c3ccc4c(c3)c(c(-c3cccnc3[C@H](C)OC)n4CC)CC(C)(C)COC(=O)[C@@H]3CCCN(N3)C2=O)C(C)C)[C@@H](C(F)(F)F)C1 | > 10000 nM
CCn1c(-c2cccnc2[C@H](C)OC)c2c3cc(ccc31)-c1cc(O)cc(c1)C[C@H](NC(=O)[C@H](C(C)C)N(C)C(=O)[C@H]1CC1(F)F)C(=O)N1CCC[C@H](N1)C(=O)OCC(C)(C)C2 | 100 to 1000 nM
CCn1c(-c2cccnc2[C@H](C)OC)c2c3cc(ccc31)-c1csc(n1)C[C@H](NC(=O)[C@H](C(C)C)N(C)C(=O)N1CCN(C)C3(CC3)C1)C(=O)N1CCC[C@H](N1)C(=O)OCC(C)(C)C2 | 100 to 1000 nM
CCn1c(-c2cccnc2[C@H](C)OC)c2c3cc(ccc31)-c1cc(O)cc(c1)C[C@H](NC(=O)[C@H](C(C)C)N(C)C(=O)[C@H]1CCN(C(=O)C(C)(C)N(C)C)C1)C(=O)N1CCC[C@H](N1)C(=O)OCC(C)(C)C2 (atropisomer, axis not shown) | 100 to 1000 nM

Input: Give reported IC50 value for "C=CC(=O)N1CC[C@H](C(=O)N(C)[C@H](C(=O)N[C@H]2Cc3cc(O)cc(c3)-c3ccc4c(c3)c(c(-c3cccnc3)n4C3CC3)CC(C)(C)COC(=O)[C@@H]3CCCN(N3)C2=O)C(C)C)C1"
Output: > 10000 nM

Input: Give reported IC50 value for "CCn1c(-c2cccnc2[C@H](C)OC)c2c3cc(ccc31)-c1csc(n1)C[C@H](NC(=O)[C@H](C(C)C)N(C)C(=O)N1CC(N3CCN(C)CC3)C1)C(=O)N1CCC[C@H](N1)C(=O)OCC(C)(C)C2"
Output: 100 to 1000 nM

Input: Give reported IC50 value for CCn1c(-c2cccnc2[C@H](C)OC)c2c3cc(ccc31)-c1cc(O)cc(c1)C[C@H](NC(=O)[C@H](C(C)C)N(C)C(=O)C1CC13CCNC3)C(=O)N1CCC[C@H](N1)C(=O)OCC(C)(C)C2 (stereo partly drawn)
Output: 10 to 100 nM

Input: Give reported IC50 value for "CCn1c(-c2cccnc2[C@H](C)OC)c2c3cc(ccc31)-c1cc(O)cc(c1)C[C@H](NC(=O)[C@H](C(C)C)N(C)C(=O)[C@H]1CCN(C(=O)CN(C)C)C1)C(=O)N1CCC[C@H](N1)C(=O)OCC(C)(C)C2"
Output: 10 to 100 nM

Input: Give reported IC50 value for "CCn1c(-c2cccnc2[C@H](C)OC)c2c3cc(ccc31)-c1csc(n1)C[C@H](NC(=O)[C@H](C(C)C)N(C)C(=O)N1CCC13CN(C)C3)C(=O)N1CCC[C@H](N1)C(=O)OCC(C)(C)C2"
Output: 100 to 1000 nM

Input: Give reported IC50 value for "CCn1c(-c2cccnc2[C@H](C)OC)c2c3cc(ccc31)-c1csc(n1)C[C@H](NC(=O)[C@H](C(C)C)N(C)C(=O)[C@@H]1OCC[C@@H]1C)C(=O)N1CCC[C@H](N1)C(=O)OCC(C)(C)C2"
Output: > 10000 nM
